# assay.protocol: Parallel artificial membrane permeability assay
# Assay type: in vitro ADME
# measurement.context: PAMPA, pH 7.4, PAMPA, pH 7.4; read-out: Papp Interpretation
measurement.kind: Papp at 2 h, 200 µM

- CC(=NOCc1ccc(Cl)cc1Cl)c1c(C)cc(=O)n(O)c1O [Compound 31]: > 1 ×10⁻⁶ cm/s
- CC(=Nc1ccc(F)c(F)c1)c1c(C)cc(=O)n(O)c1O [Compound 22]: > 1 ×10⁻⁶ cm/s
- CC(=Nc1ccccc1Cl)c1c(C)cc(=O)n(O)c1O [Compound 23]: > 1 ×10⁻⁶ cm/s
- CC(=NCc1cccc(Cl)c1)c1c(C)cc(=O)n(O)c1O [Compound 37]: > 1 ×10⁻⁶ cm/s
- CC(=NCc1cccc(F)c1)c1c(C)cc(=O)n(O)c1O [Compound 39]: > 1 ×10⁻⁶ cm/s
- CC(=Nc1c(F)cccc1F)c1c(C)cc(=O)n(O)c1O [Compound 28]: > 1 ×10⁻⁶ cm/s
- CC(=Nc1ccccc1Br)c1c(C)cc(=O)n(O)c1O [Compound 25]: > 1 ×10⁻⁶ cm/s
- CC(=Nc1cc(F)ccc1F)c1c(C)cc(=O)n(O)c1O [Compound 27]: > 1 ×10⁻⁶ cm/s
- CC(=NCc1ccc(Br)cc1)c1c(C)cc(=O)n(O)c1O [Compound 35]: > 1 ×10⁻⁶ cm/s
- CC(=Nc1ccc(F)cc1F)c1c(C)cc(=O)n(O)c1O [Compound 26]: > 1 ×10⁻⁶ cm/s
- CC(=Nc1ccccc1F)c1c(C)cc(=O)n(O)c1O [Compound 21]: > 1 ×10⁻⁶ cm/s
- CC(=Nc1ccc(F)c(Cl)c1)c1c(C)cc(=O)n(O)c1O [Compound 29]: > 1 ×10⁻⁶ cm/s
- CC(=NCc1ccccc1Cl)c1c(C)cc(=O)n(O)c1O [Compound 36]: > 1 ×10⁻⁶ cm/s
- CC(=NCc1ccc(Cl)cc1)c1c(C)cc(=O)n(O)c1O [Compound 38]: > 1 ×10⁻⁶ cm/s
- CC(=NCCOc1ccc(Cl)cc1)c1c(C)cc(=O)n(O)c1O [Compound 43]: < 1 ×10⁻⁶ cm/s
- CC(=NOCc1ccc(Cl)c(Cl)c1)c1c(C)cc(=O)n(O)c1O [Compound 30]: > 1 ×10⁻⁶ cm/s
- CC(=Nc1ccc(Cl)c(Cl)c1)c1c(C)cc(=O)n(O)c1O [Compound 24]: > 1 ×10⁻⁶ cm/s
- CC(=NCc1ccccc1Br)c1c(C)cc(=O)n(O)c1O [Compound 33]: > 1 ×10⁻⁶ cm/s
- CC(=NOCc1ccccc1I)c1c(C)cc(=O)n(O)c1O [Compound 32]: > 1 ×10⁻⁶ cm/s
- CC(=NCc1cc(F)cc(F)c1)c1c(C)cc(=O)n(O)c1O [Compound 42]: > 1 ×10⁻⁶ cm/s
